Reported values of pKi for individual entries
Molecular target: PBR (Homo sapiens, UniProt P30536)
Sequence (P30536 whole entry, species assumed): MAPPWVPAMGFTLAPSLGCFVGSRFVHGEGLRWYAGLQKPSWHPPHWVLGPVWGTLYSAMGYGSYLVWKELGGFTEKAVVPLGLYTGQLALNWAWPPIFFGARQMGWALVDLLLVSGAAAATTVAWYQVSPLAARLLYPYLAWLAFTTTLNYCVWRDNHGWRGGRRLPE
pKi: −log10 of the molar value.

Chemical String	pKi
O=c1c2sc(Cl)cc2n2c(=S)[nH]nc2n1CC1CC1	< 5.00

Pending molecule:
Prompt line: Can you share its pKi? I mean this molecule: Cn1cnc([N+](=O)[O-])c1Sc1nnc2n(CC3CC3)c(=O)c3sc(Cl)cc3n12
Response line: < 5.00

---

Target: BZP Rat brain site
Assay: Off-target primary and secondary screen
Reported values of Ki for individual entries

Compound	Target Or Test System	Ki
Cn1cnc([N+](=O)[O-])c1Sc1nnc2n(CC3CC3)c(=O)c3sc(Cl)cc3n12 [Compound 20]	BZP Rat brain site	> 10 µM

Pending compound:
Prompt line: Can you share its Ki? I mean this compound: O=c1c2sc(Cl)cc2n2c(=S)[nH]nc2n1CC1CC1 [Compound 19]
Response line: > 10 µM
